Kindly state IL-2 luciferase reporter, Normalized Fold Change from CD155-ECD for each of the entries shown.
# Study target: T1, TIGIT (human)
# T1 chain: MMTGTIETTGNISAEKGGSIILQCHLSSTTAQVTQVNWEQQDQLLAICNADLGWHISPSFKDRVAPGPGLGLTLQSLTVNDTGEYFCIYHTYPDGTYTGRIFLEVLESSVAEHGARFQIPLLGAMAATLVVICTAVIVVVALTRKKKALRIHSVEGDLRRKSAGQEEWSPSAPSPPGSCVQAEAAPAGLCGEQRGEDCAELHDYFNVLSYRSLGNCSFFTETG
# Test details: cell-based or functional assay
Numbers only, in fold.

Here are 3 binders together with their reported answers.
>  <Binder>
variant CD155 IgV-Fc V9A, P18F, T61S, Q62L, L79P, F91S, G111R (Fc fusion) WPPPGTGDAVVQAPTQVFGFLGDSVTLPCYLQVPNMEVTHVSQLTWARHGESGSMAVFHQSLGPSYSESKRLEFVAARPGAELRNASLRMSGLRVEDEGNYTCLFVTFPQRSRSVDIWLRVLGSGGGGSEPKSSDKTHTCPPCPAPEAEGAPSVFLFPPKPKDTLMISRTPEVTCVVVDVSHEDPEVKFNWYVDGVEVHNAKTKPREEQYNSTYRVVSVLTVLHQDWLNGKEYKCKVSNKALPAPIEKTISKAKGQPREPQVYTLPPSRDELTKNQVSLTCLVKGFYPSDIAVEWESNGQPENNYKTTPPVLDSDGSFFLYSKLTVDKSRWQQGNVFSCSVMHEALHNHYTQKSLSLSPGK

>  <Observed>
1.3

$$$$
>  <Binder>
variant CD155 IgV-Fc P18S, L21M, Y30F, N35D, R84W, F91S, T107M, D116G (Fc fusion) WPPPGTGDVVVQAPTQVSGFMGDSVTLPCFLQVPDMEVTHVSQLTWARHGESGSMAVFHQTQGPSYSESKRLEFVAARLGAELWNASLRMSGLRVEDEGNYTCLFVMFPQGSRSVGIWLRVLGSGGGGSEPKSSDKTHTCPPCPAPEAEGAPSVFLFPPKPKDTLMISRTPEVTCVVVDVSHEDPEVKFNWYVDGVEVHNAKTKPREEQYNSTYRVVSVLTVLHQDWLNGKEYKCKVSNKALPAPIEKTISKAKGQPREPQVYTLPPSRDELTKNQVSLTCLVKGFYPSDIAVEWESNGQPENNYKTTPPVLDSDGSFFLYSKLTVDKSRWQQGNVFSCSVMHEALHNHYTQKSLSLSPGK

>  <Observed>
-2.2

$$$$
>  <Binder>
variant CD155 IgV-Fc D8G, V9I, V11A, P18T, T26M, S52P, L79P, F91S, G92A, T107L, V115A (Fc fusion) WPPPGTGGIVAQAPTQVTGFLGDSVMLPCYLQVPNMEVTHVSQLTWARHGEPGSMAVFHQTQGPSYSESKRLEFVAARPGAELRNASLRMSALRVEDEGNYTCLFVLFPQGSRSADIWLRVLGSGGGGSEPKSSDKTHTCPPCPAPEAEGAPSVFLFPPKPKDTLMISRTPEVTCVVVDVSHEDPEVKFNWYVDGVEVHNAKTKPREEQYNSTYRVVSVLTVLHQDWLNGKEYKCKVSNKALPAPIEKTISKAKGQPREPQVYTLPPSRDELTKNQVSLTCLVKGFYPSDIAVEWESNGQPENNYKTTPPVLDSDGSFFLYSKLTVDKSRWQQGNVFSCSVMHEALHNHYTQKSLSLSPGK

>  <Observed>
8.4

$$$$

Problem: Give IL-2 luciferase reporter, Normalized Fold Change from CD155-ECD for variant CD155 IgV-Fc P18S, W46R, E68D, L79P, F91S, T107M, R113G (Fc fusion) WPPPGTGDVVVQAPTQVSGFLGDSVTLPCYLQVPNMEVTHVSQLTRARHGESGSMAVFHQTQGPSYSDSKRLEFVAARPGAELRNASLRMSGLRVEDEGNYTCLFVMFPQGSGSVDIWLRVLGSGGGGSEPKSSDKTHTCPPCPAPEAEGAPSVFLFPPKPKDTLMISRTPEVTCVVVDVSHEDPEVKFNWYVDGVEVHNAKTKPREEQYNSTYRVVSVLTVLHQDWLNGKEYKCKVSNKALPAPIEKTISKAKGQPREPQVYTLPPSRDELTKNQVSLTCLVKGFYPSDIAVEWESNGQPENNYKTTPPVLDSDGSFFLYSKLTVDKSRWQQGNVFSCSVMHEALHNHYTQKSLSLSPGK
Solution: 0.9
